// reported BrdU Labeling Index (%) in HB for each item listed
- Tested on: male C57BL/6 mice
- Assay info: DHT-induced catagen development in depilated mice, topical peptide gel (histomorphometry, TUNEL, BrdU)
- Assay type: in vivo, mouse
- Measurement context: hair bulb; day-15 post-depilation; DHT 30 mg/kg s.c.; gel 25 μM once per day for 3 days
- Protocol: Before use, the stock containing the 44-mer was prepared into a working dilution, which is then mixed with an antibiotic ointment containing 5 mg/g neomycin sulfate and 12.5 mg/g bacitracin to obtain an antibiotic ointment containing 25 μM of 44-mer. […] For analysis of HF morphogenesis, animals were euthanized at day 15 post-depilation. […] At least 24 longitudinally cut HF sections obtained from six to ten DHT-treated animals, were analyzed. […]
I'd appreciate it if you included the unit after the number.

SLGAEQRTESIIHRALYYDL [20-mer, corresponds to residues 93-112 of human PEDF] ... 45.2 ± 2.47 %
SLGAEQRTESIIHRALYYDLISSP [24-mer, corresponds to residues 93-116 of human PEDF] ... 46.9 ± 2.57 %
EQRTESIIHRALYYDLIS [18-mer, 18-mer peptide without the SLGA residues] ... 25.6 ± 2.52%

# next sequence below
May I ask what BrdU Labeling Index (%) in HB has been recorded for SLGAEQRTESIIHRALYYDLISSPDIHGT [29-mer, corresponds to residues 93-121 of human PEDF] ?
44.89 ± 2.95 %

----------
- Tested on: male mouse vibrissal hair follicles
- Assay info: Organ culture of mouse vibrissal hair follicles challenged with DHT (TUNEL, BrdU, histology)
- Format: cell-based
- Measurement context: peptide for 16 hours, then 100 nM DHT for further 48 hours; hair matrix keratinocytes
Some sequences, each annotated with its measured TUNNEL Labeling Index (%).
# output: bare number, implied unit %

A selection of reference data follows.
SLGAEQRTESIIHRALYYDL [20-mer, corresponds to residues 93-112 of human PEDF] ... 6.8
SLGAEQRTESIIHRALYYDLISSPDIHGT [29-mer, corresponds to residues 93-121 of human PEDF] ... 5.8
SLGAEHRTESVIHRALYYDL [Mo 20-mer, synthetic peptide derived from mouse PEDF] ... 7.3
EQRTESIIHRALYYDLIS [18-mer, 18-mer peptide without the SLGA residues] ... 26.2

// switching to the query sequence
Which value of TUNNEL Labeling Index (%) has been reported for SLGAEQRTESIIHRALYYDLISSP [24-mer, corresponds to residues 93-116 of human PEDF] in the records?
6.5
